measured.on: UniProt:P29410
method.notes: Inhibitory activity against rat adenylate kinase II was determined in the presence of ATP, non competitive inhibition

[
  {
    "molecule": "Nc1ncnc2c1ncn2[C@@H]1O[C@H](CO)[C@@H](O)[C@H]1O",
    "measured.on": "UniProt:P29410",
    "Ki [mM]": 87
  },
  {
    "molecule": "Nc1ncnc2c1ncn2[C@@H]1O[C@H](COP(=O)(O)OP(=O)(O)OP(=O)(O)O)[C@@H](O)[C@H]1O [ADENOSINE TRIPHOSPHATE]",
    "measured.on": "UniProt:P29410",
    "Ki [mM]": 0.09
  }
]

====

method.notes: Relative potency inhibitory calculated as the ratio of AK-II/AK-M
Here the recorded Relative inhibitory potency is given for each entry.

[
  {
    "compound": "CCSc1nc2c(N)ncnc2n1C1O[C@H](COP(=O)(O)OP(=O)(O)OP(=O)(O)OP(=O)(O)OP(=O)(O)OC[C@H]2OC(n3cnc4c(N)ncnc43)[C@H](O)[C@@H]2O)[C@@H](O)[C@H]1O (stereo not given in full)",
    "relation.operator": "=",
    "Relative inhibitory potency": 5.9
  },
  {
    "compound": "Nc1ncnc2c1ncn2C1O[C@H](CCP(=O)(O)OP(=O)(O)OP(=O)(O)O)[C@@H](O)[C@H]1O (stereo not given in full)",
    "relation.operator": ">",
    "Relative inhibitory potency": 1.8
  },
  {
    "compound": "CCC[C@H](OP(=O)(O)OP(=O)(O)OP(=O)(O)O)[C@H]1OC(n2cnc3c(N)ncnc32)[C@H](O)[C@@H]1O (stereo not given in full)",
    "relation.operator": "=",
    "Relative inhibitory potency": 0.11
  },
  {
    "compound": "CCC[C@@H](OP(=O)(O)OP(=O)(O)OP(=O)(O)OP(=O)(O)OP(=O)(O)OC[C@H]1OC(n2c(SCC)nc3c(N)ncnc32)[C@H](O)[C@@H]1O)[C@H]1OC(n2cnc3c(N)ncnc32)[C@H](O)[C@@H]1O (stereo not given in full)",
    "relation.operator": "=",
    "Relative inhibitory potency": 0.36
  },
  {
    "compound": "CCSc1nc2c(N)ncnc2n1C1O[C@H](COP(=O)(O)OP(=O)(O)OP(=O)(O)OP(=O)(O)OP(=O)(O)O[C@H](C)[C@H]2OC(n3cnc4c(N)ncnc43)[C@H](O)[C@@H]2O)[C@@H](O)[C@H]1O (stereo not given in full)",
    "relation.operator": "=",
    "Relative inhibitory potency": 3.3
  }
]

====

Here the recorded Inhibitory potency is given for each entry.
method.notes: Inhibitory potency against AK M was calculated using the equation KM(ATP) / Ki(ATP varied)

[
  {
    "molecule": "CCC[C@H](OP(=O)(O)OP(=O)(O)OP(=O)(O)O)[C@H]1OC(n2cnc3c(N)ncnc32)[C@H](O)[C@@H]1O (stereo partly drawn)",
    "relation.operator": "=",
    "Inhibitory potency": 1.9
  },
  {
    "molecule": "CCSc1nc2c(N)ncnc2n1C1O[C@H](COP(=O)(O)OP(=O)(O)OP(=O)(O)OP(=O)(O)OP(=O)(O)OC[C@H]2OC(n3c(SCC)nc4c(N)ncnc43)[C@H](O)[C@@H]2O)[C@@H](O)[C@H]1O (stereo partly drawn)",
    "relation.operator": "<",
    "Inhibitory potency": 0.63
  },
  {
    "molecule": "CCSc1nc2c(N)ncnc2n1C1O[C@H](COP(=O)(O)OP(=O)(O)OP(=O)(O)OP(=O)(O)OP(=O)(O)O[C@H](C)[C@H]2OC(n3cnc4c(N)ncnc43)[C@H](O)[C@@H]2O)[C@@H](O)[C@H]1O (stereo partly drawn)",
    "relation.operator": "=",
    "Inhibitory potency": 18.4
  },
  {
    "molecule": "CCSc1nc2c(N)ncnc2n1C1O[C@H](COP(=O)(O)OP(=O)(O)OP(=O)(O)OP(=O)(O)OP(=O)(O)OC[C@H]2OC(n3cnc4c(N)ncnc43)[C@H](O)[C@@H]2O)[C@@H](O)[C@H]1O (stereo partly drawn)",
    "relation.operator": "=",
    "Inhibitory potency": 190
  },
  {
    "molecule": "CCC[C@@H](OP(=O)(O)OP(=O)(O)OP(=O)(O)OP(=O)(O)OP(=O)(O)OC[C@H]1OC(n2c(SCC)nc3c(N)ncnc32)[C@H](O)[C@@H]1O)[C@H]1OC(n2cnc3c(N)ncnc32)[C@H](O)[C@@H]1O (stereo partly drawn)",
    "relation.operator": "=",
    "Inhibitory potency": 4.8
  },
  {
    "molecule": "C[C@H](OP(=O)(O)OP(=O)(O)OP(=O)(O)O)[C@H]1OC(n2cnc3c(N)ncnc32)[C@H](O)[C@@H]1O (stereo partly drawn)",
    "relation.operator": "<",
    "Inhibitory potency": 0.21
  },
  {
    "molecule": "CCC[C@@H](OP(=O)(O)OP(=O)(O)OP(=O)(O)O)[C@H]1OC(n2cnc3c(N)ncnc32)[C@H](O)[C@@H]1O (stereo partly drawn)",
    "relation.operator": "<",
    "Inhibitory potency": 0.084
  },
  {
    "molecule": "Nc1ncnc2c1ncn2C1O[C@H](CCP(=O)(O)OP(=O)(O)OP(=O)(O)O)[C@@H](O)[C@H]1O (stereo partly drawn)",
    "relation.operator": "<",
    "Inhibitory potency": 0.095
  }
]

====

measured.on: UniProtKB P39069
method.notes: Inhibitory activity against rat Adenylate kinase M isoenzyme in the presence of ATP
pKi: −log10 of the molar value.
measured.endpoint: pKi

[
  {
    "compound": "CCSc1nc2c(N)ncnc2n1[C@@H]1O[C@H](COP(=O)(O)OP(=O)(O)OP(=O)(O)O)[C@@H](O)[C@H]1O",
    "measured.endpoint": "pKi",
    "value.observed": 2.21
  },
  {
    "compound": "C[C@@H](OP(=O)(O)OP(=O)(O)OP(=O)(O)O)[C@H]1OC(n2cnc3c(N)ncnc32)[C@H](O)[C@@H]1O (some centres not stated)",
    "measured.endpoint": "pKi",
    "value.observed": 2.74
  }
]

====

measured.on: Adenylate kinase 2, mitochondrial (Rattus norvegicus)
method.notes: Inhibitory activity against rat adenylate kinase II was determined in the presence of AMP, competitive inhibition
pKi: −log10 of the molar value.

[
  {
    "compound": "Nc1ncnc2c1ncn2C1O[C@H](CCP(=O)(O)OP(=O)(O)OP(=O)(O)O)[C@@H](O)[C@H]1O (stereo partly specified)",
    "pKi": 3.27
  }
]

====

measured.on: UniProt P29410
method.notes: Inhibitory activity against rat adenylate kinase II was determined in the presence of AMP
pKi: −log10 of the molar value.
measured.endpoint: pKi

[
  {
    "compound": "Nc1ncnc2c1ncn2[C@@H]1O[C@H](COP(=O)(O)O)[C@@H](O)[C@H]1O [ADENOSINE PHOSPHATE]",
    "measured.on": "UniProt P29410",
    "value.observed": 4.10
  }
]

====

Here the recorded Ki is given for each entry.
measured.on: Adenylate kinase isoenzyme 1 (Rattus norvegicus, UniProt P39069)
Sequence (P39069 whole entry): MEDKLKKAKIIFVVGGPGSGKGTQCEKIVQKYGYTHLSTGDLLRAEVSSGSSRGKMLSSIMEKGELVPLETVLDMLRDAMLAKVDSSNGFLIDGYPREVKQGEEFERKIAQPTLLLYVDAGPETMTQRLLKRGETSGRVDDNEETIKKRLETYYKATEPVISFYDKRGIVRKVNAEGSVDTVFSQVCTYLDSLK
method.notes: Inhibitory activity against rat Adenylate kinase M isoenzyme in the presence of ATP non competitive inhibition

[
  {
    "molecule": "C[C@H](OP(=O)(O)OP(=O)(O)OP(=O)(O)O)[C@H]1OC(n2cnc3c(N)ncnc32)[C@H](O)[C@@H]1O (stereo partly drawn)",
    "value.unit": "mM",
    "Ki": 1.8
  },
  {
    "molecule": "Nc1ncnc2c1ncn2[C@@H]1O[C@H](COP(=O)(O)OP(=O)(O)OP(=O)(O)O)[C@@H](O)[C@H]1O [ADENOSINE TRIPHOSPHATE]",
    "value.unit": "mM",
    "Ki": 0.57
  },
  {
    "molecule": "Nc1ncnc2c1ncn2C1O[C@H](CCP(=O)(O)OP(=O)(O)OP(=O)(O)O)[C@@H](O)[C@H]1O (stereo partly drawn)",
    "value.unit": "mM",
    "Ki": 4
  }
]

====

Here the recorded Inhibitory potency is given for each entry.
method.notes: Inhibitory potency against AK II was calculated using the equation KM(ATP) / Ki(ATP varied)

[
  {
    "compound": "CCC[C@H](OP(=O)(O)OP(=O)(O)OP(=O)(O)O)[C@H]1OC(n2cnc3c(N)ncnc32)[C@H](O)[C@@H]1O (stereo partly drawn)",
    "Inhibitory potency": 0.2
  },
  {
    "compound": "CCC[C@@H](OP(=O)(O)OP(=O)(O)OP(=O)(O)OP(=O)(O)OP(=O)(O)OC[C@H]1OC(n2c(SCC)nc3c(N)ncnc32)[C@H](O)[C@@H]1O)[C@H]1OC(n2cnc3c(N)ncnc32)[C@H](O)[C@@H]1O (stereo partly drawn)",
    "Inhibitory potency": 1.7
  },
  {
    "compound": "C[C@H](OP(=O)(O)OP(=O)(O)OP(=O)(O)O)[C@H]1OC(n2cnc3c(N)ncnc32)[C@H](O)[C@@H]1O (stereo partly drawn)",
    "Inhibitory potency": 0.045
  },
  {
    "compound": "CCSc1nc2c(N)ncnc2n1C1O[C@H](COP(=O)(O)OP(=O)(O)OP(=O)(O)OP(=O)(O)OP(=O)(O)OC[C@H]2OC(n3cnc4c(N)ncnc43)[C@H](O)[C@@H]2O)[C@@H](O)[C@H]1O (stereo partly drawn)",
    "Inhibitory potency": 1120
  },
  {
    "compound": "Nc1ncnc2c1ncn2C1O[C@H](CCP(=O)(O)OP(=O)(O)OP(=O)(O)O)[C@@H](O)[C@H]1O (stereo partly drawn)",
    "Inhibitory potency": 0.17
  },
  {
    "compound": "CCC[C@@H](OP(=O)(O)OP(=O)(O)OP(=O)(O)O)[C@H]1OC(n2cnc3c(N)ncnc32)[C@H](O)[C@@H]1O (stereo partly drawn)",
    "Inhibitory potency": 0.2
  },
  {
    "compound": "CCSc1nc2c(N)ncnc2n1C1O[C@H](COP(=O)(O)OP(=O)(O)OP(=O)(O)OP(=O)(O)OP(=O)(O)OC[C@H]2OC(n3c(SCC)nc4c(N)ncnc43)[C@H](O)[C@@H]2O)[C@@H](O)[C@H]1O (stereo partly drawn)",
    "Inhibitory potency": 14
  },
  {
    "compound": "CCSc1nc2c(N)ncnc2n1C1O[C@H](COP(=O)(O)OP(=O)(O)OP(=O)(O)OP(=O)(O)OP(=O)(O)O[C@H](C)[C@H]2OC(n3cnc4c(N)ncnc43)[C@H](O)[C@@H]2O)[C@@H](O)[C@H]1O (stereo partly drawn)",
    "Inhibitory potency": 60
  }
]
